B1: Tyrosine-protein kinase BTK, residues 215 to 273; numbered along this chain, Q06187 (parent)
chain: ELKKVVALYDYMPMNANDLQLRKGDEYFILEESNLPWWRARDKNGQEGYIPSNYVTEAE

# Variants of: B1
# assay-overview: abundance fitness (aPCA) (normalised: wild type 0, dead -1); higher = more abundant; growth selection in yeast, the domain comes from the species named
# measurement-context: Homo sapiens
Rule: abundance fitness under -0.06 gives rule not met, otherwise rule met.

{"mutation-descriptor": "A16Y", "group": "rule not met"}
{"mutation-descriptor": "D25F", "group": "rule not met"}
{"mutation-descriptor": "N53R", "group": "rule met"}
{"mutation-descriptor": "S52Y", "group": "rule not met"}
{"mutation-descriptor": "V55Q", "group": "rule not met"}

Exercise: Quick check, abundance fitness >= -0.06? K23D
Key: rule not met

Exercise: Consider next the variant E59V in the same way.
Key: rule met

Exercise: Same question for R22G please.
Key: rule not met

Exercise: Also F28E , if possible.
Key: rule met

Exercise: Also need D25E , thanks.
Key: rule met

Exercise: Now the same for G45T
Key: rule not met
